This collection of values is drawn from patent US20100261679A1.

Catalogue of inhibition at 1 µM readings, one per entry.
target: PDGFRb (Homo sapiens, UniProt P09619); construct: The kinase domain of PDGFRβ was assayed in 50 mM Hepes; purchased Invitrogen P3082; assay: Inhibition of PDGFRb kinase in an in vitro biochemical assay (alphascreen); details: tested at about 1 μM; read-out: PDGFR % inhibition at 1 μM
Sequence (P09619 600-962 limits assumed): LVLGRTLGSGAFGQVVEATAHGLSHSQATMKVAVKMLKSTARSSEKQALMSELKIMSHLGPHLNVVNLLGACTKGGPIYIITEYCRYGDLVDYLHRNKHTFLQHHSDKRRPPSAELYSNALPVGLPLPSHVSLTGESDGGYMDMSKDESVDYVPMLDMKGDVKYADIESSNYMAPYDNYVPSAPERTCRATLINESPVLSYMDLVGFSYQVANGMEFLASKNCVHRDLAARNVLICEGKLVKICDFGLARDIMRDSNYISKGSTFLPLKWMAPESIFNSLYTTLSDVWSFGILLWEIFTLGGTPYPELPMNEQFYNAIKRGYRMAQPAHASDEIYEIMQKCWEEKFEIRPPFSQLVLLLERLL

Data request: Notebook: pull reported inhibition at 1 µM for PDGFRb (Homo sapiens, UniProt P09619), entry CNC(=O)c1cc(Oc2ccc3nc(NC4CCCCC4)ncc3c2)ccn1
Data returned: < 1%

Data request: Notebook: pull reported inhibition at 1 µM for PDGFRb (Homo sapiens, UniProt P09619), entry CNC(=O)c1cc(Oc2ccc3nc(NC4CCOCC4)ncc3c2)ccn1
Data returned: < 1%

Data request: Notebook: pull reported inhibition at 1 µM for PDGFRb (Homo sapiens, UniProt P09619), entry c1ccc(N2CCOCC2)c(Nc2ncc3cc(Oc4ccncc4)ccc3n2)c1
Data returned: < 1%
